# maps each entry to its percent inhibition of Factor 7 mRNA, relative to untreated control cells
Test system: human Factor 7 mRNA
ASSAY_OVERVIEW: Dose-dependent antisense inhibition of human Factor 7 in HepB3 cells, transfection with electroporation
Type: cell-based
ASSAY_CONDITIONS: 100 μM, 16 hours (Example 8, Table 16)
In the oligonucleotide strings, read from the 5' end, every base follows the letter of its sugar. An asterisk marks phosphorothioate; unmarked linkages are phosphodiester. Other units and linkages are bracketed, terminal groups are in braces. A string of capitals states the bases alone. e = 2'-O-(2-methoxyethyl) (MOE); [5mC] = 5-methylcytosine; d = 2'-deoxy (DNA)
Answer format: numeric, % implied, no suffix.

Check out these entries, answers already filled in.
407935 (antisense eA*eT*eG*e[5mC]*eA*dT*dG*dG*dT*dG*dA*dT*dG*d[5mC]*dT*eT*e[5mC]*eT*eG*eA) [compound 407935]; 91
422130 (antisense eG*e[5mC]*e[5mC]*eT*eG*dA*dG*dG*d[5mC]*d[5mC]*dA*dG*d[5mC]*dA*dG*eA*eT*e[5mC]*eA*e[5mC]) [compound 422130]; 88

Shifting focus to the substance that follows.
// percent inhibition of Factor 7 mRNA, relative to untreated control cells value for 422087 (antisense e[5mC]*eA*eT*eG*e[5mC]*dA*dT*dG*dG*dT*dG*dA*dT*dG*d[5mC]*eT*eT*e[5mC]*eT*eG) [compound 422087] : 87

###

Tested on: human Factor 7 mRNA
ASSAY_OVERVIEW: Antisense inhibition of human Factor 7 mRNA in HepB3 cells, lipofectin, 50 nM, real-time RT-PCR
Format: cell-based
ASSAY_CONDITIONS: HepB3 cells; gapmers targeted to nucleobases 13760 to 13789 of SEQ ID NO: 1 (Table 10)
In the oligonucleotide strings, read from the 5' end, every base follows the letter of its sugar. An asterisk marks phosphorothioate; unmarked linkages are phosphodiester. Other units and linkages are bracketed, terminal groups are in braces. A string of capitals states the bases alone. e = 2'-O-(2-methoxyethyl) (MOE); [5mC] = 5-methylcytosine; d = 2'-deoxy (DNA)
So basically: % Inhibition of human Factor 7 mRNA levels at 60% or higher? That is 1. Lower than 60%? That is -1.

Check out these entries, answers already filled in.
422252 (antisense e[5mC]*eG*d[5mC]*d[5mC]*dG*dG*d[5mC]*dT*d[5mC]*dT*dG*d[5mC]*dT*d[5mC]*dA*eT*e[5mC]*e[5mC]*e[5mC]*e[5mC]) [compound 422252]; 1
422256 (antisense e[5mC]*eA*d[5mC]*d[5mC]*d[5mC]*dG*d[5mC]*d[5mC]*dG*dG*d[5mC]*dT*d[5mC]*dT*dG*e[5mC]*eT*e[5mC]*eA*eT) [compound 422256]; -1
416455 (antisense e[5mC]*eG*e[5mC]*e[5mC]*eG*dG*d[5mC]*dT*d[5mC]*dT*dG*d[5mC]*dT*d[5mC]*dA*eT*e[5mC]*e[5mC]*e[5mC]*e[5mC]) [compound 416455]; -1
422255 (antisense eA*e[5mC]*d[5mC]*d[5mC]*dG*d[5mC]*d[5mC]*dG*dG*d[5mC]*dT*d[5mC]*dT*dG*d[5mC]*eT*e[5mC]*eA*eT*e[5mC]) [compound 422255]; -1
422113 (antisense eG*e[5mC]*e[5mC]*eA*e[5mC]*d[5mC]*d[5mC]*dG*d[5mC]*d[5mC]*dG*dG*d[5mC]*dT*d[5mC]*eT*eG*e[5mC]*eT*e[5mC]) [compound 422113]; 1
422115 (antisense eG*e[5mC]*eG*e[5mC]*e[5mC]*dA*d[5mC]*d[5mC]*d[5mC]*dG*d[5mC]*d[5mC]*dG*dG*d[5mC]*eT*e[5mC]*eT*eG*e[5mC]) [compound 422115]; 1

Request: Given 422116 (antisense eT*eG*e[5mC]*eG*e[5mC]*d[5mC]*dA*d[5mC]*d[5mC]*d[5mC]*dG*d[5mC]*d[5mC]*dG*dG*e[5mC]*eT*e[5mC]*eT*eG) [compound 422116] , state whether its % Inhibition of human Factor 7 mRNA levels is at least 60%.
Result: -1

Request: # bool: % Inhibition of human Factor 7 mRNA levels of 422185 (antisense e[5mC]*eT*eG*d[5mC]*dG*d[5mC]*d[5mC]*dA*d[5mC]*d[5mC]*d[5mC]*dG*d[5mC]*d[5mC]*dG*dG*d[5mC]*eT*e[5mC]*eT) [compound 422185] >= 60%
Result: -1

Request: Say whether 422108 (antisense e[5mC]*e[5mC]*eG*e[5mC]*e[5mC]*dG*dG*d[5mC]*dT*d[5mC]*dT*dG*d[5mC]*dT*d[5mC]*eA*eT*e[5mC]*e[5mC]*e[5mC]) [compound 422108] shows % Inhibition of human Factor 7 mRNA levels of 60% or more.
Result: 1

Request: Does the reported % Inhibition of human Factor 7 mRNA levels for 422176 (antisense e[5mC]*e[5mC]*eG*d[5mC]*d[5mC]*dG*dG*d[5mC]*dT*d[5mC]*dT*dG*d[5mC]*dT*d[5mC]*dA*dT*e[5mC]*e[5mC]*e[5mC]) [compound 422176] fall at or above the 60% mark?
Result: -1
